test system: Sclerotinia sclerotiorum; experiment: Fungistatic activity in Sclerotinia sclerotiorum assessed as inhibition of mycelial growth in volatile phase measured at 20 degC after 5 days; assay type: functional, organism-based; details: 120 h
pEC50: −log10 of the molar value.
metric.name: pEC50

1. CN=C=S [METHYLISOTHIOCYANATE] = 4.10
2. S=C=Nc1ccccc1 [PHENYLISOTHIOCYANATE] = 3.87
3. S=C=NCc1ccccc1 [BENZYL ISOTHIOCYANATE] = 4.22
4. S=C=NCCc1ccccc1 [PHENETHYLISOTHIOCYANATE] = 3.84
5. C=CCN=C=S [ALLYL ISOTHIOCYANATE] = 4.15
6. CCN=C=S [ETHYL ISOTHIOCYANATE] = 3.80
7. CCCCN=C=S [BUTYL ISOTHIOCYANATE] = 4.06

Just for reference, ChEMBL document CHEMBL3046027 is where these values come from.
